Assay: Hemolytic activity in human RBC measured after 1 hr by microplate reader method
Type: toxicity, cell-based, Erythrocyte
Details: human, human red blood cells (erythrocytes)
Listed below: log10 of EC50 at 1 h values for each entry.
observed-property: log10 of EC50 at 1 h (log10 of the value in µg/mL)

smiles_input=NCCCN1C(=O)N(CCCN)C(=O)C(Cc2ccc(Br)c3ccccc23)(Cc2ccc(Br)c3ccccc23)C1=O.O=C(O)C(F)(F)F.O=C(O)C(F)(F)F assay_value=1.36
smiles_input=N=C(N)NCCCCCN1C(=O)N(CCCCCNC(=N)N)C(=O)C(Cc2cc(Br)cc(Br)c2)(Cc2cc(Br)cc(Br)c2)C1=O.O=C(O)C(F)(F)F.O=C(O)C(F)(F)F assay_value=1.46
smiles_input=N=C(N)NCCCN1C(=O)N(CCCNC(=N)N)C(=O)C(Cc2ccc(Br)c(Cl)c2)(Cc2ccc(Br)c(Cl)c2)C1=O.O=C(O)C(F)(F)F.O=C(O)C(F)(F)F assay_value=2.54
smiles_input=NCCCCN1C(=O)N(CCCCN)C(=O)C(Cc2cc(Br)cc(Br)c2)(Cc2ccc(Br)c3ccccc23)C1=O.O=C(O)C(F)(F)F.O=C(O)C(F)(F)F assay_value=1.67
smiles_input=N[C@H]1CC[C@H](N2C(=O)N([C@H]3CC[C@H](N)CC3)C(=O)C(Cc3cc(Br)cc(Br)c3)(Cc3cc(Br)cc(Br)c3)C2=O)CC1.O=C(O)C(F)(F)F.O=C(O)C(F)(F)F assay_value=1.20
